The reported numbers originate from patent US10787423B2.

targetOrSystem: rVDAC1-GFP2 / rVDAC1-Rluc in T-REx-293 cells (Rattus norvegicus)
Construct: The rVDAC1 gene was cloned into BamHI and HindIII sites of the BRET2 plasmids (N2 variants); expressed in transfected cells; host or cells: T-REx-293 cells stably expressing hVDAC1-shRNA (T-REx-pS10)
assayComment: BRET2 assay of VDAC1 oligomerization induced by apoptosis inducers (Method A)
Format: cell-based
conditions: test compound 10 μM, 1 h pre-incubation, As2O3 60 μM (3 h)
readoutKind: BRET2, % of inhibition, As2O3 (%)
Value expressed in %; do not type the unit.

Measured BRET2, % of inhibition, As2O3 of COC(=O)C1(C)Cc2cc(OC(C)=O)c(OC(C)=O)cc2N1 (stereo not drawn) : 51.5

Measured BRET2, % of inhibition, As2O3 of "O=C(/C=C/c1ccccc1)NC(=S)Nc1ncccn1" : 58.5

Measured BRET2, % of inhibition, As2O3 of "COC(=NC(C)C)NC(C)C" : 69.6

Measured BRET2, % of inhibition, As2O3 of "C=CCNC(=O)c1ccc(OC)cc1" : 74.6

Measured BRET2, % of inhibition, As2O3 of "CCN1CCc2ccccc2C1" : 85.2

Measured BRET2, % of inhibition, As2O3 of "Nc1nc(Nc2ccccc2)n[nH]1" : 86.4

Measured BRET2, % of inhibition, As2O3 of "O=[N+]([O-])c1ccc(-c2ncc(-c3ccc(Br)cc3)o2)cc1" : 77.3

Measured BRET2, % of inhibition, As2O3 of "O=P(O)(O)c1cc(-c2ccccc2)oc1-c1ccccc1" : 80.7

Measured BRET2, % of inhibition, As2O3 of "O=C(Nc1ccc(Cl)c(Cl)c1)Nc1ccccc1O" : 86.8

---

targetOrSystem: rVDAC1-GFP2 / rVDAC1-Rluc in T-REx-293 cells (Rattus norvegicus, UniProt Q9Z2L0)
Construct: The rVDAC1 gene was cloned into BamHI and HindIII sites of the BRET2 plasmids (N2 variants); expressed in transfected cells; host or cells: T-REx-293 cells stably expressing hVDAC1-shRNA (T-REx-pS10)
Sequence (Q9Z2L0 with tags, fused parts or gaps limits assumed): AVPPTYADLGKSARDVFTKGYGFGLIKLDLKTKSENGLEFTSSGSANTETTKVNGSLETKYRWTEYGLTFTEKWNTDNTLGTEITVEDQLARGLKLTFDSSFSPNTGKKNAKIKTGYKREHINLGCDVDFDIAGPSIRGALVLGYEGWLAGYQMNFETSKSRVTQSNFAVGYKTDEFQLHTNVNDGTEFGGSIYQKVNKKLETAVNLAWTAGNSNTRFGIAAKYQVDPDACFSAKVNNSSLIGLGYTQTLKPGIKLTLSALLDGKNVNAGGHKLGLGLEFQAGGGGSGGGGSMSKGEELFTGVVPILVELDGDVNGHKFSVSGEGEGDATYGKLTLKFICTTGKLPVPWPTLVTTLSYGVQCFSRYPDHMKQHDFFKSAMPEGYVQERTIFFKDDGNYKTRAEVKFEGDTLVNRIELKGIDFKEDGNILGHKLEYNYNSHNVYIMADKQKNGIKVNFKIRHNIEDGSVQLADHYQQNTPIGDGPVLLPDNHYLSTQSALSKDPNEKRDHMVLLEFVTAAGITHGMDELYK
assayComment: BRET2 assay of VDAC1 oligomerization induced by apoptosis inducers (Method A)
Type: cell-based
conditions: test compound 10 μM, 1 h pre-incubation, selenite 30 μM (3 h)
readoutKind: BRET2, % of inhibition, Selenite (%)
Value expressed in %; do not type the unit.

Measured BRET2, % of inhibition, Selenite of "CC(C)COC(=O)NC1c2ccccc2Oc2ccccc21" : 0

Measured BRET2, % of inhibition, Selenite of "Nc1ccc(NC(=O)Nc2ccc(N)cc2)cc1" : 75.9

Measured BRET2, % of inhibition, Selenite of "Cc1ccc([N+](=O)[O-])cc1NC(=O)Nc1ccc(S(N)(=O)=O)cc1" : 71.8

Measured BRET2, % of inhibition, Selenite of "O=C(O)c1cc2ccccc2cc1Nc1ccccc1" : 35.2

Measured BRET2, % of inhibition, Selenite of "CCOc1cccc(/C=C2\NC(=S)N(c3ccccc3)C2=O)c1O" : 20.1

Measured BRET2, % of inhibition, Selenite of "O=C(Nc1ccc(Cl)c(Cl)c1)Nc1ccccc1O" : 47.6

---

Give BRET2, % of inhibition, As2O3 for every item shown.
targetOrSystem: rVDAC1-GFP2 / rVDAC1-Rluc in T-REx-293 cells (Rattus norvegicus)
Construct: The rVDAC1 gene was cloned into BamHI and HindIII sites of the BRET2 plasmids (N2 variants); expressed in transfected cells; host or cells: T-REx-293 cells stably expressing hVDAC1-shRNA (T-REx-pS10)
assayComment: BRET2 assay of VDAC1 oligomerization induced by apoptosis inducers (Method A)
Assay type: cell-based
conditions: test compound 10 μM, 1 h pre-incubation, As2O3 60 μM (3 h)
Respond with the figure and its unit, in that order.

Measured BRET2, % of inhibition, As2O3 of "Clc1ccc(/C=C/c2nc(Cl)c(-c3ccc(Cl)cc3)c(Cl)n2)cc1" : 90.6%

Measured BRET2, % of inhibition, As2O3 of "O=C(Nc1cccc([N+](=O)[O-])c1)c1cccc(C(=O)Nc2cccc([N+](=O)[O-])c2)c1" : 90.3%

Measured BRET2, % of inhibition, As2O3 of "O=C(O)c1cccc2c1C(=O)c1cccc3snc-2c13" : 48.7%

Measured BRET2, % of inhibition, As2O3 of "O=C(Nc1ccc(Br)c2ccccc12)c1ccc2ccccc2c1O" : 97.7%

Measured BRET2, % of inhibition, As2O3 of "CCOC(=O)c1[nH]c(CO)c(C(=O)OCC)c1C" : 52%

Measured BRET2, % of inhibition, As2O3 of CN1[C@@H]2CC[C@H]1CC(OC(c1ccccc1)c1ccccc1)C2.CS(=O)(=O)O (some centres unmarked) : 97%

Measured BRET2, % of inhibition, As2O3 of "Nc1ncnc2c1cnn2C1CCCCC1" : 64.2%

Measured BRET2, % of inhibition, As2O3 of "CCOc1cccc(/C=C2\NC(=S)N(c3ccccc3)C2=O)c1O" : 39.4%
